Molecular target: T1, human GLP-1 receptor (human, UniProt P43220 24-463)
T1 construct: whole, on cells
Assay: 125I-GLP-1 displacement, membranes of CHOK1 cells expressing human GLP-1 receptor
No end group written: not given here.
measured_quantity: IC50 (nM)
One number for each entry, in nM.

Known results for binders:
VHAEGTFTSDVSSYLEGQAAKEFIAWLVKGR (ends and bridges not checked, Not pegylated) [V-GLP-1 (SEQ ID NO: 252)] ... 32
PHAEGTFTSDVSSYLEGQAAKEFIAWLVKGR (ends and bridges not checked, Not pegylated; also called P-CLP-1) [P-GLP-1 (SEQ ID NO: 249)] ... 38
MHHAEGTFTSDVSSYLEGQAAKEFIAWLVKGR (ends and bridges not checked, Not pegylated) [MH-GLP1 (SEQ ID NO: 257)] ... 350
MWHAEGTFTSDVSSYLEGQAAKEFIAWLVKGR (ends and bridges not checked, Not pegylated) [MW-GLP1 (SEQ ID NO: 265)] ... 79
MEHAEGTFTSDVSSYLEGQAAKEFIAWLVKGR (Not pegylated) [ME-GLP1 (SEQ ID NO: 264)] ... 95

Quick one: give me IC50 for each item below, same order please.
1. THAEGTFTSDVSSYLEGQAAKEFIAWLVKGR (not fully specified; ends and bridges not checked, Not pegylated) [T-GLP-1 (SEQ ID NO: 251)]
2. MIHAEGTFTSDVSSYLEGQAAKEFIAWLVKGR (not fully specified; ends and bridges not checked, Not pegylated) [MI-GLP1 (SEQ ID NO: 260)]
3. MQHAEGTFTSDVSSYLEGQAAKEFIAWLVKGR (ends and bridges not checked, Not pegylated) [MQ-GLP1 (SEQ ID NO: 253)]
4. MRHAEGTFTSDVSSYLEGQAAKEFIAWLVKGR (ends and bridges not checked, Not pegylated) [MR-GLP1 (SEQ ID NO: 254)]
5. MLHAEGTFTSDVSSYLEGQAAKEFIAWLVKGR (ends and bridges not checked, Not pegylated) [ML-GLP1 (SEQ ID NO: 262)]
6. GHAEGTFTSDVSSYLEGQAAKEFIAWLVKGR (not fully specified, Not pegylated) [G-GLP-1 (SEQ ID NO: 248)]

## Result
53
75
64
590
160
80

Record MKHAEGTFTSDVSSYLEGQAAKEFIAWLVKGR (not fully specified; ends and bridges not checked, Not pegylated) [MK-GLP1 (SEQ ID NO: 255)] , field IC50: 760
